These data points were gathered from patent US20210238260A1.

Quick reference: pKd of the listed items.
# TARGET: T1, Factor VIIIa (recombinant FVIII, Kogenate FS, activated with alpha-thrombin) (UniProt P00451 20-2351)
# T1 construct: also called FVIIIa
# T1 sequence (looked up): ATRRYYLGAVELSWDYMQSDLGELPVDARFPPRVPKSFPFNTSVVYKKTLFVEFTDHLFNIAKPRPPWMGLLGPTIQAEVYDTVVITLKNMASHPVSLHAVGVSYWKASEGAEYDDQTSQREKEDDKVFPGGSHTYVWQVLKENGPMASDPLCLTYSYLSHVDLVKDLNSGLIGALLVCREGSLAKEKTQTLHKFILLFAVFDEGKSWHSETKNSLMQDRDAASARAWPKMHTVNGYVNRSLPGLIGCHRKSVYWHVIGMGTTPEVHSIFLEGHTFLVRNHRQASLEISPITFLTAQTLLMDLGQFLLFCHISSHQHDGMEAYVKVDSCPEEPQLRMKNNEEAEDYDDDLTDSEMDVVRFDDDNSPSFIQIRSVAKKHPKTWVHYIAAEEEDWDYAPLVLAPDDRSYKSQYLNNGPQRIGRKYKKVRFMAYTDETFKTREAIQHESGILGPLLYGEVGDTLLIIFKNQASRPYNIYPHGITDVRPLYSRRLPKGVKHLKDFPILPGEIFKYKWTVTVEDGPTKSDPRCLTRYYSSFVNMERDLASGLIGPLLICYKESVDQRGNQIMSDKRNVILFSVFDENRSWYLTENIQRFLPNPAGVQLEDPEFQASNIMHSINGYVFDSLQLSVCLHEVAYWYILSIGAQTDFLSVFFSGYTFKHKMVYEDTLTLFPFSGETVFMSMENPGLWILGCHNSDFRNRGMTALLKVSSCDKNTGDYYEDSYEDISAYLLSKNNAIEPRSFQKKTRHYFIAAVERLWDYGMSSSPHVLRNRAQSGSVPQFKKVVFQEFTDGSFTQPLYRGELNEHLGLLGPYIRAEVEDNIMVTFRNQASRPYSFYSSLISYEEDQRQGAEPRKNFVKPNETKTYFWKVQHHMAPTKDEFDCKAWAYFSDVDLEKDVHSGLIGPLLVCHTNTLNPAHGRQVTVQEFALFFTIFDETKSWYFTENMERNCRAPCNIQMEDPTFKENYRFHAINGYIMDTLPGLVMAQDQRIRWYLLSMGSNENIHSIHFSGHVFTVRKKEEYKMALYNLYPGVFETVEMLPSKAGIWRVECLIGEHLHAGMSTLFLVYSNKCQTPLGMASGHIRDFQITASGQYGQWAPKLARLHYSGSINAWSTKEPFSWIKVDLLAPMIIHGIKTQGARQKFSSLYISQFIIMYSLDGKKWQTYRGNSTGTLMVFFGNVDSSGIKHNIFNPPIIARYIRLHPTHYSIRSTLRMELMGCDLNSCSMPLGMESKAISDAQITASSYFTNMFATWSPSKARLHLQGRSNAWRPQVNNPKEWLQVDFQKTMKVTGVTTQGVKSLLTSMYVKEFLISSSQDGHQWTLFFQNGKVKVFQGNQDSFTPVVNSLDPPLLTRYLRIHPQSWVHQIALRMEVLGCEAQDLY
# PROTOCOL_NOTES: functional cofactor affinity KD-app: fluorogenic FX activation (Xase) assay, FVIIIa titrated, PC/PS vesicles, saturating FX
The value called pKd is obtained by taking minus log10 of the concentration in mol/L.

Challenge: Reported pKd, binder FIXa-R318Y/R338E/T343R (enzyme, also called R150Y/R170E/T175R (chymotrypsin numbering); CB2679d) chain 1: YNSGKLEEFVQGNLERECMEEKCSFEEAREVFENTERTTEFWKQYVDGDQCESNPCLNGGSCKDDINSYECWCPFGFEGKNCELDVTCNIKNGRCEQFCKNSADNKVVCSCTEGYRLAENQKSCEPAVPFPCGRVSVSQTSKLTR chain 2: VVGGEDAKPGQFPWQVVLNGKVDAFCGGSIVNEKWIVTAAHCVETGVKITVVAGEHNIEETEHTEQKRNVIRIIPHHNYNAAINKYNHDIALLELDEPLVLNSYVTPICIADKEYTNIFLKFGSGYVSGWGRVFHKGYSALVLQYLRVPLVDRATCLESTKFRIYNNMFCAGFHEGGRDSCQGDSGGPHVTEVEGTSFLTGIISWGEECAMKGKYGIYTKVSRYVNWIKEKTKLT : ____
Response given: 8.01

Challenge: Reported pKd, binder FIXa-Y155F/K247N/N249S/R318Y/R338E/T343R/R403E/E410N (enzyme) chain 1: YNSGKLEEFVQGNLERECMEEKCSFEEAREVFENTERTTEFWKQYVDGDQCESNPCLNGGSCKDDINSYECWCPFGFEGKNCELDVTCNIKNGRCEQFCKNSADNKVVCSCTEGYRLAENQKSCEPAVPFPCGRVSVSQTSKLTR chain 2: VVGGEDAKPGQFPWQVVLNGKVDAFCGGSIVNEKWIVTAAHCVETGVKITVVAGEHNIEETEHTEQNRSVIRIIPHHNYNAAINKYNHDIALLELDEPLVLNSYVTPICIADKEYTNIFLKFGSGYVSGWGRVFHKGYSALVLQYLRVPLVDRATCLESTKFRIYNNMFCAGFHEGGRDSCQGDSGGPHVTEVEGTSFLTGIISWGEECAMKGKYGIYTKVSEYVNWIKNKTKLT : ____
Response given: 7.82
